Taken from paper PMC3817407.

targetDesc: T1, ECF11_987
T1 chain: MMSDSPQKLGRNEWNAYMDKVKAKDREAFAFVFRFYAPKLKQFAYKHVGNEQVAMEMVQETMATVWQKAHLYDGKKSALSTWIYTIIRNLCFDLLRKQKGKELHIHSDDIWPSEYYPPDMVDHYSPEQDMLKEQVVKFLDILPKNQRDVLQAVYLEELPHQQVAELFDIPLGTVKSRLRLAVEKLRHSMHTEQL
measuredProperty: fold repression
Simply state the number, no unit and no words.

Below: 2 binders and their reported fold repression.
- AS22_4450 (protein) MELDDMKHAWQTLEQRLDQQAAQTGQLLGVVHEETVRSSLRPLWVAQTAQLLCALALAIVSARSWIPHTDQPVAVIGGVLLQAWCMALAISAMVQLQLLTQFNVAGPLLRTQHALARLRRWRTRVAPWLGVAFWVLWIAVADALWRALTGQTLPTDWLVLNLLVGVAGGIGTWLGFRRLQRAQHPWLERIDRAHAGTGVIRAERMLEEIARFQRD: 1.89
- AS01_3473 (protein) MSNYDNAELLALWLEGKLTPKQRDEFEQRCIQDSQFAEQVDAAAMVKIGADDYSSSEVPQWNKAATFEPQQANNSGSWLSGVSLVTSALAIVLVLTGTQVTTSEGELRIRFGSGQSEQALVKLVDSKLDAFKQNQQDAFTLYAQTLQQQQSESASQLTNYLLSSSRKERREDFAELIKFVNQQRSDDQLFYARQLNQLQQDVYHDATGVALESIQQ: 1.52

For the next question, use this binder.
Item under review: AS25_1643_cl43 (protein) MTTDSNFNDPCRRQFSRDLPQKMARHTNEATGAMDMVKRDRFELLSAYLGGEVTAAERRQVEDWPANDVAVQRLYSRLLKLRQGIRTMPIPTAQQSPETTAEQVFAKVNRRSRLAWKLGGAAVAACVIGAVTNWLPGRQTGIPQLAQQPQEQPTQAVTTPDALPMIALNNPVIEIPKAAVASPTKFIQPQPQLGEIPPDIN . Reported fold repression? 2.43
